system: U-251; experiment: NCI tumour cell line growth inhibition, 48 h
Calls of active or inactive are those of the source. No stated cut-off is given here; in the data, active = GI50 up to about 1.1 µM and inactive = higher.
Observation type: GI50

Example cases with answers are listed next.
Cc1cc(NC2=CC(=O)C(=O)c3ccccc32)no1
3.92 µM (inactive)
COc1cc(C(=O)N(C)N(C)C)cc(OC)c1OC
> 10 µM (inactive)
O=C(O)c1ccccc1NC(c1ccccc1)c1ccc2cccnc2c1O (stereo not given)
4.08 µM (inactive)

// moving on: another record for GI50
What the record says about NC(=O)NNC(=O)c1nc[nH]c1[N+](=O)[O-] : GI50 is > 100 µM (inactive)

====

system: SNB-19; experiment: NCI tumour cell line growth inhibition, 48 h
Activity calls are given as the source filed them. Rule as the data show it: active = GI50 up to about 1.1 µM and inactive = higher. Where a SMILES comes first, the peptide text is derived from it. Peptide text beside a SMILES is read from it. The star is where a group is joined. * marks the point of attachment. Boc = CC(C)(C)OC(=O)*; OBn = c1ccc(CO*)cc1; Bn = c1ccc(C*)cc1
In this exercise, the only acceptable responses are true = active, false = inactive

CC(C)CC(NC(=O)C(CCC(=O)OCc1ccccc1)NC(=O)OC(C)(C)C)C(=O)NC(COCc1ccccc1)C(=O)NC(Cc1ccccc1)C(=O)O (centres undefined) (Boc-E(OBn)LS(Bn)F-OH; configuration not given here)
false
CCN(CC)Cc1ccc2cccnc2c1O
false
O=[N+]([O-])c1ccc(C2c3c(O)nc(O)nc3Oc3nc(O)nc(O)c32)cc1
false
Cc1nc2c(O)cc3c4c(n(Cc5ccccc5)c3c2nc1C)C(=O)CCC4
false
NCCCCN(CCCN)Cc1ccccc1
false
Cc1cc(NC2=CC(=O)C(=O)c3ccccc32)no1
false
COc1ccccc1Cn1c2c(c3c(C(=O)NCCN(C)C)c(O)ccc31)C(=O)c1ccccc1C2=O
false
COC(=O)/C(C)=C(/CCC1(C)OCCO1)O[Si](C)(C)C
false
COc1ccc(-c2nnc(-c3nsc4ccccc34)o2)cc1
false
C=CCn1c(N)c(C#N)c(C#N)c1CCC
false

Query: Field: outcome | Entry: COC(=O)c1sc(=O)sc1SCc1cccc(CSc2sc(=O)sc2C(=O)OC)c1
Response: false

Query: Field: outcome | Entry: CC(=O)OCC(OC(C)=O)C(OC(C)=O)C(/C=N\Nc1nc2ccccc2c(=O)[nH]1)=N\Nc1nc2ccccc2c(=O)[nH]1 (centres undefined)
Response: false

Query: Field: outcome | Entry: CC1(C)OCC(/C=C\C(O)CC2(C)OCCO2)CO1 (centres undefined)
Response: false

Query: Field: outcome | Entry: C=C=C(C)C(=O)N(C(C)C)C(C)C
Response: false

Query: Field: outcome | Entry: CC(NC(=O)C(NC(=O)OC(C)(C)C)C(C)C)C(=O)NCC(=O)O (stereo not drawn) (Boc-Val-Ala-Gly-OH; configuration not given here)
Response: false

Query: Field: outcome | Entry: Cn1ccc(C(=O)NCCN(CCNC(=O)c2ccn(C)c(=O)c2O)CCNC(=O)c2ccn(C)c(=O)c2O)c(O)c1=O
Response: false

====

system: A498; assay: NCI tumour cell line growth inhibition, 48 h
Active and inactive are the calls of the source. Cut-off read from the data, not from the text of the source: active = GI50 up to about 1.1 µM and inactive = higher.
Observation type: GI50

CC1(C)CC(=O)C2=C(C1)C(c1ccccc1Cl)C1C(=O)CC(C)(C)CC1(O)O2 (stereo not given)
> 100 µM (inactive)
C=CCn1c(=O)c(C)cn(/C(=C/C(=O)OCC)C(=O)OCC)c1=O
22.1 µM (inactive)
COc1ccc2cc(C(C)C(O)c3cc(F)c(F)c(F)c3F)ccc2c1 (stereo not given)
> 100 µM (inactive)
CCCCC(=O)c1c(O)ccc2c(C)cc(=O)oc12
97.7 µM (inactive)

What the record says about COc1cc(C2S/C(=C/c3ccccc3)C(=O)N2c2ccc(Cl)cc2)cc(OC)c1OC (stereo not given) : GI50 is 53.8 µM (inactive)

What the record says about O=C1c2ccccc2C(=O)c2sc(Nc3cc(Cl)ccc3Cl)nc21 : GI50 is 21 µM (inactive)

What the record says about O=C(NC1C(O)C(O)C(CO)OC1n1cc(F)c(=O)[nH]c1=O)OCc1ccccc1 (stereo not given) : GI50 is > 100 µM (inactive)

What the record says about CCOC(=O)NN(C(=O)OCC)C(C(=O)c1ccc(Cl)cc1)=C1NCCN1 : GI50 is > 100 µM (inactive)

What the record says about O=C(Nc1cc(Cl)c(Cl)cc1Cl)C(=O)C1C=CCS1(=O)=O (stereo not given) : GI50 is > 100 µM (inactive)

What the record says about COC(=O)C(COC(=O)/C=C/c1ccc(OC(C)=O)c(OC(C)=O)c1)OC(=O)/C=C/c1ccc(OC(C)=O)c(OC(C)=O)c1 (stereo not given) : GI50 is 16.5 µM (inactive)
